# assay.comment: Selectivity index, ratio of Ki for human KOR to Ki for rat MOR
Label no if Ratio Ki falls below 1; label yes in every other case.

Here's what some known entries look like.
{"structure.string": "C[C@H]1[C@H]2Cc3ccc(O)cc3[C@]1(C)CCN2CCC(=O)Nc1cccc2ccccc12", "answer.label": "yes"}
{"structure.string": "C[C@H]1[C@H]2Cc3ccc(O)cc3[C@]1(C)CCN2CCC(=O)Nc1cccc2cccnc12", "answer.label": "no"}

Record C[C@H]1[C@H]2Cc3ccc(O)cc3[C@]1(C)CCN2CCC(=O)Nc1cccc2cnccc12 ; criterion: Ratio Ki no lower than 1. Met? yes

Has C[C@H]1[C@H]2Cc3ccc(O)cc3[C@]1(C)CCN2CCC(=O)Nc1cccc2ncccc12 a recorded Ratio Ki greater than or equal to 1? no

Ratio Ki >= 1 for C[C@H]1[C@H]2Cc3ccc(O)cc3[C@]1(C)CCN2CCC(=O)Nc1cnc2ccccc2c1 ? yes

Could you verify whether the entry C[C@H]1[C@H]2Cc3ccc(O)cc3[C@]1(C)CCN2CCC(=O)Nc1ccccc1 shows Ratio Ki of no less than 1? yes

====

# Species: Rattus norvegicus
# assay.comment: Selectivity index, ratio of Ki for rat DOR to Ki for rat MOR
Please go through the items and note down their Ratio Ki.
Give bare numbers.

Reference set, count: 4
{"structure.string": "C[C@H]1[C@H]2Cc3ccc(O)cc3[C@]1(C)CCN2CCC(=O)Nc1cccc2ccccc12", "Ratio Ki": 5.5}
{"structure.string": "C[C@H]1[C@H]2Cc3ccc(O)cc3[C@]1(C)CCN2CCC(=O)Nc1cccc2cccnc12", "Ratio Ki": 0.16}
{"structure.string": "C[C@H]1[C@H]2Cc3ccc(O)cc3[C@]1(C)CCN2CCC(=O)Nc1cnc2ccccc2c1", "Ratio Ki": 0.62}
{"structure.string": "C[C@H]1[C@H]2Cc3ccc(O)cc3[C@]1(C)CCN2CCC(=O)Nc1ccc2ncccc2c1", "Ratio Ki": 0.07}

Consider the following items and state reported Ratio Ki for each.
1. C[C@H]1[C@H]2Cc3ccc(O)cc3[C@]1(C)CCN2CCC(=O)Nc1cccc2cnccc12
2. C[C@H]1[C@H]2Cc3ccc(O)cc3[C@]1(C)CCN2CCC(=O)Nc1cccc2ncccc12
3. C[C@H]1[C@H]2Cc3ccc(O)cc3[C@]1(C)CCN2CCC(=O)Nc1ccccc1

[3.6, 0.1, 0.67]

====

# target.under.test: Kappa-type opioid receptor (Homo sapiens, UniProt P41145)
# Sequence (P41145 whole entry): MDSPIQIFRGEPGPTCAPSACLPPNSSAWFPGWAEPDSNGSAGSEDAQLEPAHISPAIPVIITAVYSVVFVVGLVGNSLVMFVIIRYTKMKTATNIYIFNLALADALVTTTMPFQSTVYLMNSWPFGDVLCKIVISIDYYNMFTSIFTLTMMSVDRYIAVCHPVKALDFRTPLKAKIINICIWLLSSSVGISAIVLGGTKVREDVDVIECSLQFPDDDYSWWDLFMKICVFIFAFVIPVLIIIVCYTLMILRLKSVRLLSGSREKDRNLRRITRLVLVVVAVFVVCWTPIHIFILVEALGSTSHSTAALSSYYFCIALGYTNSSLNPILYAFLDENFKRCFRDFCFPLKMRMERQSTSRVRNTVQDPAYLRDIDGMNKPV
# assay.comment: Activity at human KOR expressed in EE-HEK293 cells assessed as pEC50 for effect on (-)U50,488H-induced response (reference value: […] +/- […])
measure: EC50
Please state the value followed by its unit.

// fetch EC50 given entry C[C@H]1[C@H]2Cc3ccc(O)cc3[C@]1(C)CCN2CCC(=O)Nc1cccc2ccccc12 10 µM

====

# target.under.test: Delta-type opioid receptor (Mus musculus, UniProt P32300)
# Sequence (P32300 whole entry): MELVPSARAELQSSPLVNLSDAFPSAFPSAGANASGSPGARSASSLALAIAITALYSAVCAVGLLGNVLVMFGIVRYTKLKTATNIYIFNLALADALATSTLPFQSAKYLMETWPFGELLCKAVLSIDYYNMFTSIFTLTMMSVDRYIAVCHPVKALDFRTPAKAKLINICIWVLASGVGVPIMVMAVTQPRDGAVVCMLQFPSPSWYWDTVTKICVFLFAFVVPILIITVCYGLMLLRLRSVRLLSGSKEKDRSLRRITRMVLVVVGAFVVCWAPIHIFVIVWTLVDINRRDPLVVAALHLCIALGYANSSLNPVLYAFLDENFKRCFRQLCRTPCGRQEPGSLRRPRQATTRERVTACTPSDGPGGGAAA
# assay.comment: Agonist activity at DOR in CD1 mouse vas deferens assessed as inhibition of EFS-induced contractions incubated for 60 mins
measure: EC50 (µM)
Numbers only, in µM.

Look up EC50 of C[C@H]1[C@H]2Cc3ccc(O)cc3[C@]1(C)CCN2CCC(=O)Nc1cccc2cnccc12 and report it. 158

====

# target.under.test: Delta-type opioid receptor (Rattus norvegicus, UniProt P33533)
# Sequence (P33533 whole entry): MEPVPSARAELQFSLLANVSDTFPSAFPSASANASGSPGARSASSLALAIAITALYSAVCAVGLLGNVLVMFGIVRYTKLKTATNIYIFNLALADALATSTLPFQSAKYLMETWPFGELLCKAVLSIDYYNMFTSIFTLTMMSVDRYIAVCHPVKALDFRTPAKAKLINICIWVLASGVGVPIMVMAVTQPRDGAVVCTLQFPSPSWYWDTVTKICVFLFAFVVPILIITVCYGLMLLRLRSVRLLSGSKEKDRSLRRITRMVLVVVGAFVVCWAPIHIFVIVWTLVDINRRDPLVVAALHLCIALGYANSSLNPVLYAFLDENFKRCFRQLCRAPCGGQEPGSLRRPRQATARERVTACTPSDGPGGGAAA
# assay.comment: Displacement of [3H]-DPN from rat DOR expressed in EE-HEK293 cell membranes by liquid scintillation counting
Threshold-based label: Ki under 300 nM gives label 1, Ki not under 300 nM gives label 0.

These solved cases illustrate the format of a correct answer.
{"structure.string": "C[C@H]1[C@H]2Cc3ccc(O)cc3[C@]1(C)CCN2CCC(=O)Nc1cccc2cnccc12", "answer.label": "label 1"}
{"structure.string": "C[C@H]1[C@H]2Cc3ccc(O)cc3[C@]1(C)CCN2CCC(=O)Nc1ccc2ncccc2c1", "answer.label": "label 0"}
{"structure.string": "C[C@H]1[C@H]2Cc3ccc(O)cc3[C@]1(C)CCN2CCC(=O)Nc1cccc2ccccc12", "answer.label": "label 1"}
{"structure.string": "C[C@H]1[C@H]2Cc3ccc(O)cc3[C@]1(C)CCN2CCC(=O)Nc1cccc2ncccc12", "answer.label": "label 0"}
{"structure.string": "C[C@H]1[C@H]2Cc3ccc(O)cc3[C@]1(C)CCN2CCC(=O)Nc1cnc2ccccc2c1", "answer.label": "label 0"}

Note: attention shifts to another entry.
A record lists C[C@H]1[C@H]2Cc3ccc(O)cc3[C@]1(C)CCN2CCC(=O)Nc1cccc2cccnc12 . Is its Ki below 300 nM? label 0
